Provide the reported 2019-nCoV 3CL TSA Tm of each item.
- target_or_system: UniProt P0DTD1
- Assay type: binding
- reported_conditions: melting temperature with compound; DMSO 55.74; 30 μM compound
Non-standard residues stand in square brackets, D forms with d. Residues, ends and D or L forms follow the SMILES beside them. *: point of attachment. Nva = CCC[C@H](N)C(=O)O; Cbz = O=C(OCc1ccccc1)*
Numbers only, in °C.

Each compound below has a recorded value; state its 2019-nCoV 3CL TSA Tm.
1. CCC[C@@H](C=O)NC(=O)[C@H](CC(C)C)NC(=O)[C@H](CC(C)C)NC(=O)OCc1ccccc1 [MG-115 (60), MG-115] (Cbz-Leu-Leu-[Nva]-aldehyde)
2. CC(C)[C@H](NC(=O)OCc1ccccc1)C(=O)N[C@H](C=O)Cc1ccccc1 [calpain inhibitor III (MDL28170) (57), calpain inhibitor III] (Cbz-Val-Phe-aldehyde)
3. CCCC[C@@H](C=O)NC(=O)[C@H](CC(C)C)NC(=O)OCc1ccccc1 [Calpeptin (56), Calpeptin]
4. CC(C)C[C@@H](C=O)NC(=O)[C@@H](NS(=O)(=O)c1ccc(F)cc1)C(C)C [Calpain inhibitor VI (58), Calpain inhibitor VI]
5. CSCC[C@@H](C=O)NC(=O)[C@H](CC(C)C)NC(=O)[C@H](CC(C)C)NC(C)=O [Calpain inhibitor II (61), Calpain inhibitor II] (Ac-Leu-Leu-Met-aldehyde)

[60.51, 55.36, 56.84, 55.46, 62.93]
